# System: HCI-011.E2 (organoid from an ER-positive breast cancer xenograft)
# EXPERIMENTAL DETAILS: CTG-3D luminescence at 96 h relative to day-0 seeding control (ratio to day 0); higher = more growth / less cytotoxicity; PDxO 3D drug screen, 96 h, CTG-3D normalised to day-0 seeding control.
# CONDITION SUMMARY: 10 µM
TEST READOUT: CTG-3D luminescence at 96 h
Give bare numbers.

These recorded examples may help you get a feel for the data.
SMILES RECORD	CTG-3D luminescence at 96 h
CC(=O)O[C@H]1C(=O)[C@@]2(C)[C@H]([C@H](OC(=O)c3ccccc3)[C@]3(O)C[C@H](OC(=O)[C@H](O)[C@@H](NC(=O)c4ccccc4)c4ccccc4)C(C)=C1C3(C)C)[C@]1(OC(C)=O)CO[C@@H]1C[C@@H]2O	1.77
CCN(c1cc(C#CCN2CCOCC2)cc(C(=O)NCc2c(C)cc(C)[nH]c2=O)c1C)[C@H]1CC[C@H](N(C)CCOC)CC1	2.09
Nc1ccn([C@@H]2O[C@H](CO)[C@@H](O)C2(F)F)c(=O)n1	1.78
C=CC(=O)N1CCC[C@@H](n2nc(-c3ccc(Oc4ccccc4)cc3)c3c(N)ncnc32)C1	2.03

Recorded result, CNC(=O)c1cccc(-c2ccc3c(N4CCOC[C@@H]4C)nc(N4CCOC[C@@H]4C)nc3n2)c1 , CTG-3D luminescence at 96 h: 0.212

---

# Tested on: HCI-024 (organoid from a breast cancer xenograft)
# EXPERIMENTAL DETAILS: CTG-3D luminescence at 96 h relative to day-0 seeding control (ratio to day 0); higher = more growth / less cytotoxicity; PDxO 3D drug screen, 96 h, CTG-3D normalised to day-0 seeding control.
# CONDITION SUMMARY: 625 fM; days in culture: 122
I'd appreciate it if you could supply CTG-3D luminescence at 96 h values for the items below.
One number for each entry.

MOLECULE	SYSTEM NAME	TEST READOUT	READOUT NUMBER
O=C(/C=C/c1cccnc1)NCCCCC1CCN(C(=O)c2ccccc2)CC1	HCI-024	CTG-3D luminescence at 96 h	2.91
CCN1CCN(Cc2ccc(Nc3ncc(F)c(-c4cc(F)c5nc(C)n(C(C)C)c5c4)n3)nc2)CC1	HCI-024	CTG-3D luminescence at 96 h	3.21

Hi! Can you tell me CTG-3D luminescence at 96 h for each of these molecules?
1. COc1cccc2c1C(=O)c1c(O)c3c(c(O)c1C2=O)C[C@@](O)(C(=O)CO)C[C@@H]3O[C@H]1C[C@H](N)[C@H](O)[C@H](C)O1
2. CC1(C)CCC(c2ccc(Cl)cc2)=C(CN2CCN(c3ccc(C(=O)NS(=O)(=O)c4ccc(N[C@H](CCN5CCOCC5)CSc5ccccc5)c(S(=O)(=O)C(F)(F)F)c4)cc3)CC2)C1
3. C[C@]12CC[C@@H]3c4ccc(O)cc4C[C@@H](CCCCCCCCC[S+]([O-])CCCC(F)(F)C(F)(F)F)[C@H]3[C@@H]1CC[C@@H]2O (stereo not given in full)

[2.88, 2.7, 2.53]

---

# Tested on: HCI-002 (organoid from a triple-negative breast cancer xenograft)
# EXPERIMENTAL DETAILS: CTG-3D luminescence at 96 h relative to day-0 seeding control (ratio to day 0); higher = more growth / less cytotoxicity; PDxO 3D drug screen, 96 h, CTG-3D normalised to day-0 seeding control.
# CONDITION SUMMARY: 625 fM; days in culture: 91
TEST READOUT: CTG-3D luminescence at 96 h
One number for each entry.

COMPOUND	CTG-3D luminescence at 96 h
O=C(O)C1(C(=O)O)CCC1.[NH2-].[NH2-].[Pt+2]	4.08
Nc1ccn([C@@H]2O[C@H](CO)[C@@H](O)C2(F)F)c(=O)n1	3.87
CS(=O)(=O)c1ccc(C(=O)Nc2ccc(Cl)c(-c3ccccn3)c2)c(Cl)c1	2.53
Cc1cc(Nc2ncc(Cl)c(Nc3ccccc3S(=O)(=O)C(C)C)n2)c(OC(C)C)cc1C1CCNCC1	4.18

Hi! Can you tell me CTG-3D luminescence at 96 h for each of these compounds?
1. O=C(c1ccc(F)c(F)c1Nc1ccc(I)cc1F)N1CC(O)([C@@H]2CCCCN2)C1
2. CCc1c2c(nc3ccc(O)cc13)-c1cc3c(c(=O)n1C2)COC(=O)[C@]3(O)CC
3. C[C@]12CC[C@@H]3c4ccc(O)cc4C[C@@H](CCCCCCCCC[S+]([O-])CCCC(F)(F)C(F)(F)F)[C@H]3[C@@H]1CC[C@@H]2O (stereo partly specified)
4. CC[C@H](NC(=O)[C@H](C)NC)C(=O)N1C[C@@H](O)C[C@H]1Cc1c(-c2[nH]c3cc(F)ccc3c2C[C@@H]2C[C@H](O)CN2C(=O)[C@H](CC)NC(=O)[C@H](C)NC)[nH]c2cc(F)ccc12
5. NC1(C(=O)N[C@@H](CCO)c2ccc(Cl)cc2)CCN(c2nc[nH]c3nccc2-3)CC1

1. 3.97
2. 3.54
3. 3.54
4. 4.22
5. 4

Hi! Can you tell me CTG-3D luminescence at 96 h for each of these compounds?
1. CN(Cc1cnc2nc(N)nc(N)c2n1)c1ccc(C(=O)N[C@@H](CCC(=O)O)C(=O)O)cc1 [methotrexate]
2. COc1cccc2c1C(=O)c1c(O)c3c(c(O)c1C2=O)C[C@@](O)(C(=O)CO)C[C@@H]3O[C@H]1C[C@H](N)[C@H](O)[C@H](C)O1

[4.28, 3.96]

---

# Test system: HCI-015 (organoid from a triple-negative breast cancer xenograft)
# EXPERIMENTAL DETAILS: CTG-3D luminescence at 96 h relative to day-0 seeding control (ratio to day 0); higher = more growth / less cytotoxicity; PDxO 3D drug screen, 96 h, CTG-3D normalised to day-0 seeding control.
# CONDITION SUMMARY: 625 fM; days in culture: 172
I'd appreciate it if you could supply CTG-3D luminescence at 96 h values for the items below.
One number for each entry.

These recorded examples may help you get a feel for the data.
SMILES RECORD	SYSTEM NAME	CTG-3D luminescence at 96 h
Cc1cc(Nc2ncc(Cl)c(Nc3ccccc3S(=O)(=O)C(C)C)n2)c(OC(C)C)cc1C1CCNCC1	HCI-015	2.67
CC(=O)O[C@H]1C(=O)[C@@]2(C)[C@H]([C@H](OC(=O)c3ccccc3)[C@]3(O)C[C@H](OC(=O)[C@H](O)[C@@H](NC(=O)c4ccccc4)c4ccccc4)C(C)=C1C3(C)C)[C@]1(OC(C)=O)CO[C@@H]1C[C@@H]2O	HCI-015	1.2

Next item in the queue.
Entry NC1(C(=O)N[C@@H](CCO)c2ccc(Cl)cc2)CCN(c2nc[nH]c3nccc2-3)CC1 , tested on HCI-015, has a reported CTG-3D luminescence at 96 h of 2.15

---

# System: HCI-017.E2 (organoid from an ER-positive breast cancer xenograft)
# EXPERIMENTAL DETAILS: CTG-3D luminescence at 96 h relative to day-0 seeding control (ratio to day 0); higher = more growth / less cytotoxicity; PDxO 3D drug screen, 96 h, CTG-3D normalised to day-0 seeding control.
# CONDITION SUMMARY: 1 µM
TEST READOUT: CTG-3D luminescence at 96 h

These recorded examples may help you get a feel for the data.
MOLECULE	SYSTEM NAME	RESULT
NC(=O)c1cccc2cn(-c3ccc([C@@H]4CCCNC4)cc3)nc12 [niraparib]	HCI-017.E2	1.48
C/C=C1\NC(=O)[C@H]2CSSCC/C=C/[C@H](CC(=O)N[C@H](C(C)C)C(=O)N2)OC(=O)[C@H](C(C)C)NC1=O [romidepsin]	HCI-017.E2	0.151
O=C(O)C1(C(=O)O)CCC1.[NH2-].[NH2-].[Pt+2] [carboplatin]	HCI-017.E2	2.25

Hi! Can you tell me CTG-3D luminescence at 96 h for each of these molecules?
1. CCN1CCN(Cc2ccc(Nc3ncc(F)c(-c4cc(F)c5nc(C)n(C(C)C)c5c4)n3)nc2)CC1 [abemaciclib]
2. Cc1nc(-c2cn3c(n2)-c2ccc(-c4cnn(C(C)(C)C(N)=O)c4)cc2OCC3)n(C(C)C)n1 [taselisib]
3. C=CCn1c(=O)c2cnc(Nc3ccc(N4CCN(C)CC4)cc3)nc2n1-c1cccc(C(C)(C)O)n1 [adavosertib]
4. CC[C@H](NC(=O)[C@H](C)NC)C(=O)N1C[C@@H](O)C[C@H]1Cc1c(-c2[nH]c3cc(F)ccc3c2C[C@@H]2C[C@H](O)CN2C(=O)[C@H](CC)NC(=O)[C@H](C)NC)[nH]c2cc(F)ccc12 [birinapant]

[2.01, 0.448, 1.78, 2.21]

---

# System: HCI-025 (organoid from a breast cancer xenograft)
# EXPERIMENTAL DETAILS: CTG-3D luminescence at 96 h relative to day-0 seeding control (ratio to day 0); higher = more growth / less cytotoxicity; PDxO 3D drug screen, 96 h, CTG-3D normalised to day-0 seeding control.
# CONDITION SUMMARY: 100 µM; days in culture: 172
TEST READOUT: CTG-3D luminescence at 96 h
Give bare numbers.

These recorded examples may help you get a feel for the data.
COMPOUND	READOUT NUMBER
C=CCn1c(=O)c2cnc(Nc3ccc(N4CCN(C)CC4)cc3)nc2n1-c1cccc(C(C)(C)O)n1	0.128
CN(Cc1cnc2nc(N)nc(N)c2n1)c1ccc(C(=O)N[C@@H](CCC(=O)O)C(=O)O)cc1 [methotrexate]	1.02
Nc1ccn([C@@H]2O[C@H](CO)[C@@H](O)C2(F)F)c(=O)n1	0.195
CC[C@H](NC(=O)[C@H](C)NC)C(=O)N1C[C@@H](O)C[C@H]1Cc1c(-c2[nH]c3cc(F)ccc3c2C[C@@H]2C[C@H](O)CN2C(=O)[C@H](CC)NC(=O)[C@H](C)NC)[nH]c2cc(F)ccc12	0.0157
CS(=O)(=O)c1ccc(C(=O)Nc2ccc(Cl)c(-c3ccccn3)c2)c(Cl)c1	0.368

Recorded result, CC(C)(C(=O)NCC(F)(F)C(F)(F)F)C(=O)N[C@@H]1C(=O)Nc2ccccc2-c2ccccc21 , CTG-3D luminescence at 96 h: 0.839
